Taken from ChEMBL document CHEMBL1687879.

assay: Antidiabetic activity in rat hemidiaphragm assessed as glucose uptake at 1 mg after 45 mins in presence of insulin; format: functional, Diaphragm
hey, just use Condition met if measured Activity is less than 40 mg/dL, otherwise Condition not met

* COc1ccc(NC(=O)COc2ccc(/C=C3\SC(=S)NC3=O)cc2)cc1 | Condition met
* Cc1ccc(NC(=O)COc2ccc(/C=C3\SC(=S)NC3=O)cc2)cc1 | Condition met
* COc1ccc(NC(=O)COc2ccc(/C=C3\SC(=O)NC3=O)cc2)cc1 | Condition met
* O=C(CN1C(=O)S/C(=C\c2ccco2)C1=O)Nc1ccccc1 | Condition met
* O=C(CN1C(=O)S/C(=C\c2ccccc2Cl)C1=O)Nc1ccccc1 | Condition met
* CCc1cccc(CC)c1NC(=O)COc1ccc(/C=C2\SC(=O)NC2=O)cc1 | Condition met
* CCc1cccc(CC)c1NC(=O)COc1ccc(/C=C2\SC(=S)NC2=O)cc1 | Condition met
* Cc1ccc(NC(=O)COc2ccc(/C=C3\SC(=O)NC3=O)cc2)cc1 | Condition met
* O=C(CN1C(=O)S/C(=C\C=C\c2ccccc2)C1=O)Nc1ccccc1 | Condition met
* O=C(CN1C(=O)S/C(=C\c2ccccc2)C1=O)Nc1ccccc1 | Condition met
* COc1ccc(/C=C2\SC(=O)N(CC(=O)Nc3ccccc3)C2=O)cc1 | Condition not met
* O=C(COc1ccc(/C=C2\SC(=S)NC2=O)cc1)Nc1ccccc1 | Condition met
* O=C(CN1C(=O)S/C(=C\c2ccc(Cl)cc2)C1=O)Nc1ccccc1 | Condition met
* O=C(CN1C(=O)S/C(=C\c2ccc(Cl)cc2Cl)C1=O)Nc1ccccc1 | Condition not met
* COc1cc(/C=C2\SC(=O)N(CC(=O)Nc3ccccc3)C2=O)ccc1O | Condition met
* CN(CCOc1ccc(CC2SC(=O)NC2=O)cc1)c1ccccn1 (stereo not given) [ROSIGLITAZONE] | Condition not met
* O=C(CN1C(=O)S/C(=C\c2ccccc2O)C1=O)Nc1ccccc1 | Condition not met
* CCOC(=O)CNC(=O)CN1C(=O)S/C(=C\c2ccc(OC)cc2)C1=O | Condition not met
